- ASSAY: TOR pathway reporter MEP2-GFP, retest of hits – S. cerevisiae, flow cytometry GFP, cherry picks, confirmation (AID 2272);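 note: ratio of well signal to plate DMSO mean so 100% equals DMSO level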
- CONDITIONS: S. cerevisiae MEP2-GFP strain, 3 h, at 10 µM, stronger effect = higher value
EXPERIMENTAL READOUT: GFP response vs DMSO (%)
Numbers only here, please. The scale is %.

As a guide, the following entries are already answered.
COMPOUND | VALUE
COC(=O)c1ccc2nc(Nc3nc4c(F)cc(F)cc4s3)sc2c1 | 101
CN/C(=C/[N+](=O)[O-])NCCSCc1ccc(CN(C)C)o1 | 107
COc1cc2c(cc1OC)C(c1ccccc1)=NCC2 | 100
COc1cc(/C=C/C(=O)CC(=O)/C=C/c2ccc(O)c(OC)c2)ccc1O | 111
c1cnc2c(c1)ccc1cccnc12 | 112

Now look at this entry.
Challenge: Value lookup for GFP response vs DMSO; key = CC(NCCc1ccc(O)cc1)C(O)c1ccc(O)cc1 (stereo unspecified)
Response given: 100

* * *

Reported percent of DMSO control GFP values for the following compounds.
- ASSAY: rapamycin-like changes in RPL19A-GFP expression – cell-based, S. cerevisiae, multiplex flow cytometry, primary screen (AID 1862);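 note: lower values mimic rapamycin by blocking the RPL19A rise seen in DMSO cells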
- CONDITIONS: S. cerevisiae RPL19A-GFP strain, flow cytometry fluorescence, 3 h; at 10 µM; stronger effect = lower value
Records with an inconclusive call do not appear.
Numbers only here, please. The scale is %.

As a guide, the following entries are already answered.
COMPOUND | UNIT NAME | VALUE
O=C(NC(=S)Nc1ccc2c(c1)OCCO2)c1ccccc1F | % | 103
O=C(Nc1cccc(C(=O)O)c1)/C(=C\c1ccccc1)NC(=O)c1ccccc1 | % | 105
CN(C)c1ccc(CNCCC(Cc2ccccc2)c2ccco2)cc1 (configuration not stated) | % | 101
CCN(CC)C(=O)c1sc(NC(=O)c2c(OC)cccc2OC)c(C#N)c1C | % | 101
CC(C)Oc1cccc(C(=O)N2CCCC2)c1 | % | 102

Challenge: Value lookup for percent of DMSO control GFP; key = "CO[C@H]1C=CO[C@@]2(C)Oc3c(C)c(O)c4c(O)c(c(C=NN5CCN(C)CC5)c(O)c4c3C2=O)NC(=O)C(C)=CC=C[C@H](C)[C@H](O)[C@@H](C)[C@@H](O)[C@@H](C)[C@H](OC(C)=O)[C@@H]1C"
Response given: 93.3

Challenge: Value lookup for percent of DMSO control GFP; key = "Nc1[nH]c(=O)ncc1F"
Response given: 84.2

Challenge: Value lookup for percent of DMSO control GFP; key = "COc1c2ccoc2nc2c(OC)cccc12"
Response given: 105

Challenge: Value lookup for percent of DMSO control GFP; key = "Cn1cc(CN2CCC(C(=O)N3CCCCC3)CC2)c(-c2ccccc2F)n1"
Response given: 95.9

Challenge: Value lookup for percent of DMSO control GFP; key = "CCOc1cc(C=O)ccc1OCCSc1ccc(C)cc1"
Response given: 94.6

Challenge: Value lookup for percent of DMSO control GFP; key = "Cc1ccc(S(=O)(=O)NC(=O)Nc2cc(C)ccc2F)cc1"
Response given: 102

Challenge: Value lookup for percent of DMSO control GFP; key = "O=C(/C=C/c1c[nH]c2ccccc12)c1cccc2ccccc12"
Response given: 106

The measured values listed here are drawn from PubChem BioAssay.
